The origin of these recorded values is patent US11351173B2.

Experimental details: Compound solubility in water
Condition parameters: water, Compound Solubility in Water
Entries annotated with measured solubility

[
  {
    "Compound": "Cc1cc(C)n2ccc(C(=O)NCC3CCC4(CCCCO4)CC3)c2n1 (stereo not drawn)",
    "Value units": "µg/mL",
    "Lt gt eq": "=",
    "solubility": 19.4
  },
  {
    "Compound": "Cc1cc(C)n2ccc(C(=O)NC3CCN(c4ccsc4)CC3)c2n1",
    "Value units": "µg/mL",
    "Lt gt eq": "=",
    "solubility": 1.9
  },
  {
    "Compound": "Cc1cc(Cl)n2ccc(C(=O)Nc3ccc(-c4cocn4)cc3)c2n1",
    "Value units": "µg/mL",
    "Lt gt eq": "=",
    "solubility": 0.7
  },
  {
    "Compound": "Cc1cc(C)n2ccc(C(=O)NC3CCC4(CCCCO4)C3)c2n1 (stereo not drawn)",
    "Value units": "µg/mL",
    "Lt gt eq": "=",
    "solubility": 27.3
  },
  {
    "Compound": "Cc1cc(C)n2ccc(C(=O)Nc3ccc(-c4ncco4)cc3C)c2n1",
    "Value units": "µg/mL",
    "Lt gt eq": "=",
    "solubility": 0.1
  },
  {
    "Compound": "Cc1cc(O)n2ccc(C(=O)NC3CCCc4ccccc43)c2n1 (stereo not drawn)",
    "Value units": "µg/mL",
    "Lt gt eq": "=",
    "solubility": 3.7
  },
  {
    "Compound": "Cc1cc(C)n2ccc(C(=O)Nc3ccc(OCCCCN)cc3)c2n1",
    "Value units": "µg/mL",
    "Lt gt eq": "=",
    "solubility": 17.2
  },
  {
    "Compound": "CCCCCO[C@H]1CC[C@H](NC(=O)c2ccn3c(COC)cc(COC)nc23)CC1",
    "Value units": "µg/mL",
    "Lt gt eq": "=",
    "solubility": 10.6
  },
  {
    "Compound": "Cc1cc(C)n2ccc(C(=O)Nc3ccc(C)c(-c4ncco4)c3)c2n1",
    "Value units": "µg/mL",
    "Lt gt eq": "<",
    "solubility": 1.5
  }
]
